Each recorded value in this set is attributed to ChEMBL document CHEMBL2218924.

Provide the reported residual activity of each item.
Molecular target: Serine/threonine-protein kinase mTOR (Homo sapiens) (UniProt P42345)
Conditions: at 10 µM
Answers are plain numbers, in %.

Answered cases to consult:
>>> observed_result("COc1ccc(C(=O)Nc2sc3c(c2C(N)=O)CCCC3)cc1OC")
88
>>> observed_result("O=[N+]([O-])c1ccc(-c2nc(-c3ccc(F)cc3)c(-c3ccncc3)[nH]2)cc1")
71
>>> observed_result("O=C1c2ccccc2-[n+]2ccc3c([nH]c4ccccc43)c21")
101

Consider the following items and state reported residual activity for each.
1. CCC(=O)Nc1ccc2ncnc(Nc3cccc(Br)c3)c2c1
2. CC[n+]1c(/C=C/N(C)c2ccccc2)n(-c2ccccc2)c2ccc(-c3nc4ccccc4s3)cc21
3. O=C1Nc2cc(Br)ccc2/C1=C1/Nc2ccccc2/C1=N\O

Ans.
101
79
82

----------
Give measured residual activity for each item. Keep answers brief.
Molecular target: Serine/threonine-protein kinase Chk2 (Homo sapiens)
Conditions: at 1 µM
Answers are plain numbers, in %.

Recorded residual activity, per entry:
>>> observed_result("O=c1cc(-c2cccc3c2Sc2ccccc2S3)oc(N2CCOCC2)c1")
106
>>> observed_result("Cc1ccc(NC2=CC(=O)c3sc(C)nc3C2=O)cc1")
96
>>> observed_result("CO[C@H]1[C@@H](OC)C[C@H](C)[C@@H](OC)C2=CC(=O)C=C(NC(=O)/C(C)=C/C=C/[C@H](OC)[C@@H](OC(N)=O)/C(C)=C/[C@@H]1C)C2=O")
91
>>> observed_result("Cc1cccc(-c2[nH]c(C(C)(C)C)nc2-c2ccc3c(c2)OCO3)n1")
91

Now for another entry.
Qu. Would you kindly share the measured residual activity for COc1ccc(CNc2nc(N(CCO)CCO)nc3c2ncn3C(C)C)cc1 ?
Ans. 77

----------
Would you kindly list residual activity for each of these compounds?
Target: Tyrosine-protein kinase Blk (Homo sapiens)
Details: at 1 µM
Numbers only, in %.

Before answering, review these 3 worked examples.
>>> observed_result("CCN(CC)C(=O)c1ccc(Nc2nc(OCC3CCCCC3)c3nc[nH]c3n2)cc1")
20
>>> observed_result("COc1ccc(S(=O)(=O)N(CCO)c2ccccc2CN(C)C/C=C/c2ccc(Cl)cc2)cc1")
99
>>> observed_result("CN(C)CCCn1cc(C2=C(c3c[nH]c4ccccc34)C(=O)NC2=O)c2ccccc21")
65

Qu. Given CC(C)n1cnc2c(NCc3ccccc3)nc(NCCCO)nc21 , state its recorded residual activity.
Ans. 78

----------
Target: Tyrosine-protein kinase Fgr (Homo sapiens) (UniProt P09769)
Sequence (P09769 2-529 limits assumed): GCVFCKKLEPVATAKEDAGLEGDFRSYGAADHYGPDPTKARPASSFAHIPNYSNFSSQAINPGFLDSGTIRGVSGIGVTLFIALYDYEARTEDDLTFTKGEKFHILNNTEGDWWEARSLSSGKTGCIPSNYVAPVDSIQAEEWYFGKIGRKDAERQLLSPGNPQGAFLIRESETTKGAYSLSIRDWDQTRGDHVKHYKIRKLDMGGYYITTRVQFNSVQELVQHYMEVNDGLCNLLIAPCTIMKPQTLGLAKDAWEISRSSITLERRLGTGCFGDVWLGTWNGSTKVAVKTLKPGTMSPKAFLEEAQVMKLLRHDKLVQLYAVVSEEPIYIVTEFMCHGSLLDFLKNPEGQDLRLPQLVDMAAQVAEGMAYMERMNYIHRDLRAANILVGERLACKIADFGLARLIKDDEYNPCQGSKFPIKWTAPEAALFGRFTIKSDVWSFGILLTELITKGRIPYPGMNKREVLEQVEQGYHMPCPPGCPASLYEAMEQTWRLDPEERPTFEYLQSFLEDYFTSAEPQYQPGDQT
Settings: at 10 µM
experimental readout: residual activity (%)
Give bare numbers, in %.

Reference set (3 entries):
>>> observed_result("CC(=O)O/N=C1\\C(=C2\\C(=O)Nc3cc(Br)ccc32)Nc2ccccc21")
-1
>>> observed_result("O=c1cc(-c2cccc3c2Sc2ccccc2S3)oc(N2CCOCC2)c1")
93
>>> observed_result("O=C1Nc2cc(Br)ccc2/C1=C1/Nc2ccccc2/C1=N\\O")
2

Could you now consider this next molecule?
Qu. Need residual activity of CO[C@@H]1[C@H](N(C)C(=O)c2ccccc2)C[C@H]2O[C@]1(C)n1c3ccccc3c3c4c(c5c6ccccc6n2c5c31)C(=O)NC4 , thanks.
Ans. 4

----------
Provide the reported residual activity of each item.
Molecular target: Rho-associated protein kinase 1 (Homo sapiens) (UniProt Q13464)
Sequence (Q13464 2-1354 limits assumed): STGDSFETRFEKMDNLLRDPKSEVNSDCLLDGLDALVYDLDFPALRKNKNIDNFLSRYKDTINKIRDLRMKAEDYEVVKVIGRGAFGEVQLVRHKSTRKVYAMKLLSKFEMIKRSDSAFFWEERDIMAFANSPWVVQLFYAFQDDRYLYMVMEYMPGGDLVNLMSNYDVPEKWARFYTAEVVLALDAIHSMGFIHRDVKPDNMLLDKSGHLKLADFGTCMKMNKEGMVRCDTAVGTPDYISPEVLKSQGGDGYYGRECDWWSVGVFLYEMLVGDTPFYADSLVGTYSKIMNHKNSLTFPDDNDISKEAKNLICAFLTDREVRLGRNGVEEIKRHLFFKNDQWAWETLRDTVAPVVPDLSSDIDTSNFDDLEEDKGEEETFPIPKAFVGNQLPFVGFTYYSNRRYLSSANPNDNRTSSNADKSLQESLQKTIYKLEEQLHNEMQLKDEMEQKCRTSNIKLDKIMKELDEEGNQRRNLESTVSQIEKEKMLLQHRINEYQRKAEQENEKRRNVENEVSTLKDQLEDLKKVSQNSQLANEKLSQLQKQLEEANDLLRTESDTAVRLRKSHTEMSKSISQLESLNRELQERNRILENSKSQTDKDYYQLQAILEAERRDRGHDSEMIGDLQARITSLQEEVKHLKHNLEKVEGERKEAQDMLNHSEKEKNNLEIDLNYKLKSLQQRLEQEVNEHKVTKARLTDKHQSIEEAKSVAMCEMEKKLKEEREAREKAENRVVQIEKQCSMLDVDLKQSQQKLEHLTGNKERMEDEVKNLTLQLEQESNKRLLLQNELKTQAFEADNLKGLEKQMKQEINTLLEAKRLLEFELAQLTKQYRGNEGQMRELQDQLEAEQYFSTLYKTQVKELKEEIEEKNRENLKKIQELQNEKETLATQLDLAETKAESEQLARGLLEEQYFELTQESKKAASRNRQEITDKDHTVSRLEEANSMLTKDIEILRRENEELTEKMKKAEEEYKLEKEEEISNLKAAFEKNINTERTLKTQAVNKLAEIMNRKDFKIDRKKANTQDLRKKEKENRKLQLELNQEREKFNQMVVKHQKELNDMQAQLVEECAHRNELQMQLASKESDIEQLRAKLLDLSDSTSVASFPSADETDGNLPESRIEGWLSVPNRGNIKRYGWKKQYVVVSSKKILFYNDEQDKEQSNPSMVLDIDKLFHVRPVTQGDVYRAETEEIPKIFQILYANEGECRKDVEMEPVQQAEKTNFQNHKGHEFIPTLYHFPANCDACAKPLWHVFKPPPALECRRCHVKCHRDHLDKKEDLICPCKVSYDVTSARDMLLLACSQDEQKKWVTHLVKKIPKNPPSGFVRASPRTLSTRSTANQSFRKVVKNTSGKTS
Conditions: at 1 µM
Kindly write the number and append the unit.

Worked cases, answers included:
>>> observed_result("Cc1cncc2cccc(S(=O)(=O)N3CCCN(C(=O)CN)C[C@H]3C)c12")
"34%"
>>> observed_result("C[C@@H](N)[C@H]1CC[C@H](C(=O)Nc2ccncc2)CC1")
"77%"

Now examine the next entry.
Qu. Reported residual activity for O=[N+]([O-])c1ccc(-c2nc(-c3ccc(F)cc3)c(-c3ccncc3)[nH]2)cc1 : what is it?
Ans. 122%
